Cited source for all entries: the NIST ThermoML archive (doi:10.1021/acs.jced.8b00591)

conditions: 293.15 K; 101.3 kPa; Liquid; Falling or rolling sphere viscometry
attributeMeasured: viscosity (mPa·s)

>>> print(df.to_string())
                                   compound  number
0           CCOC(=O)OCC [diethyl carbonate]   0.812
1            COC(=O)OC [dimethyl carbonate]   0.626
2  CCn1cc[n+](C)c1.O=S(=O)([N-]S(=O)(=O)C(F)(F)F)C(F)(F)F   40.36
3  CCCC[n+]1ccn(C)c1.O=S(=O)([N-]S(=O)(=O)C(F)(F)F)C(F)(F)F   61.32
